Cited source for all entries: the supplement of paper PMC10338343

Tested on: EfPiwi piRISC loaded with L1MC piRNA (26 nt)
experimental-protocol: pre-steady-state target cleavage rate (min^-1); auxiliary factor: 500 nM Ephydatia muelleri Gtsf1; guide: L1MC piRNA 5'p-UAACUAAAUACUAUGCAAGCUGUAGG; MIWI and MILI are mouse PIWI proteins and EfPiwi is from a freshwater sponge; tags in brackets are library labels; higher = faster piRNA-guided slicing of the target
# maps each entry to its pre-steady-state target cleavage rate
Reply: number alone, nothing else.

Study these solved cases before continuing.
construct-sequence	pre-steady-state target cleavage rate
UCCUGGUUCAGCUUGCAUAGUAUUUAGUAA	0.00696
UCCUGGAUGUGCUUGCAUAUUAUUUAGUUA	0.00647
UCCUGGAACAGCUUGCAUUGUAUUUAGUAA	0.00646

Problem: Sample UCCUCCUACAGGAUGCAUAGUAUUUUCAAA — what was its pre-steady-state target cleavage rate?
Result: 0.00259

Problem: Record: UCCUGGAUCAGCUUGGAUAGUAUUUAGUUA
Result: 0.0092
